- System: tissue glutathione levels
- procedureDetails: Glutathione depletion in mice (tissue glutathione levels)
- Format: in vivo
- measurementConditions: kidney; i.p., 2 hours after injection; L-SR and D-SR 0.4 mmole/kg, L-S and L-R 0.2 mmole/kg
Please provide measured glutathione level of kidney for the entries that follow.

[Q] Name the recorded glutathione level of kidney for CCCC[S@@](=N)(=O)CC[C@H](N)C(=O)O [L-buthionine-R-sulfoximine] .
[A] 87 % of control

[Q] Would you mind doing CCCCS(=N)(=O)CC[C@@H](N)C(=O)O (stereo partly drawn) [D-buthionine-SR-sulfoximine, reference compound] as well?
[A] 70 % of control

[Q] // next record CCCC[S@](=N)(=O)CC[C@H](N)C(=O)O [L-buthionine-S-sulfoximine]
[A] 27 % of control

[Q] One more compound: CCCCS(=N)(=O)CC[C@H](N)C(=O)O (stereo partly drawn) [L-buthionine-SR-sulfoximine, L-(S-n-butyl)homocysteine-SR-sulfoximine]
[A] 27 % of control

Recorded values, source patent US5245077A.
